From: PubChem BioAssay (EPA / NIEHS)

Experiment Description: IUF_NPC4_neurite_length_120hr: Leibniz Research Institute for Environmental Medicine (IUF) 120-hour Neuronal Morphology Assay for Neurite Length (NPC4) (AID 2284302)
Activity calls are given as the source filed them. Rule for the calls: active = hit-call score of the fitted dose curve at least 0.9, where 1 is the maximum; inactive = score below 0.9.
Readout Type: AC50

[
  {
    "Compound": "COC(=O)Nc1nc2ccccc2[nH]1",
    "Readout Type": "AC50",
    "Reported": "8.96 µM (active)"
  },
  {
    "Compound": "OCCOCCO",
    "Readout Type": "AC50",
    "Reported": "inactive"
  },
  {
    "Compound": "O=P(OCCCl)(OCCCl)OCCCl",
    "Readout Type": "AC50",
    "Reported": "inactive"
  },
  {
    "Compound": "CNC(=O)Oc1cccc2c1OC(C)(C)C2",
    "Readout Type": "AC50",
    "Reported": "inactive"
  },
  {
    "Compound": "CC(C)(C)C(O)(CCc1ccc(Cl)cc1)Cn1cncn1 (stereo unspecified)",
    "Readout Type": "AC50",
    "Reported": "inactive"
  },
  {
    "Compound": "CCCCOC(=O)c1ccccc1C(=O)OCc1ccccc1",
    "Readout Type": "AC50",
    "Reported": "inactive"
  }
]

* * *

Read-out: Forkhead box O1 (FOXO1), FOXO1 (gene 2308)
Experiment Description: LTEA_HepaRG_FOXO1: Life Technologies and Expression Analysis (LTEA) Assay for Forkhead box O1 (FOXO1) using HepaRG (AID 2283456)
Reported Conditions: mRNA level, 48 h; actives raise or lower the signal
Active and inactive are the calls of the source. Rule for the calls: active = hit-call score of the fitted dose curve at least 0.9, where 1 is the maximum; inactive = score below 0.9.
Possible outcomes: true = active, false = inactive

[
  {
    "Compound": "Clc1ccc(Cl)c(Cl)c1",
    "Class Name": "false"
  },
  {
    "Compound": "CCCCCOC(=O)c1ccccc1C(=O)OCCCCC",
    "Class Name": "false"
  },
  {
    "Compound": "Clc1ccc(C(c2ccc(Cl)cc2)C(Cl)Cl)cc1",
    "Class Name": "false"
  },
  {
    "Compound": "CCOC(=O)[C@]1(c2ccccc2)Oc2ccccc2[C@@H]1N",
    "Class Name": "true"
  },
  {
    "Compound": "CC(C)(C)OOC(=O)c1ccccc1",
    "Class Name": "false"
  },
  {
    "Compound": "O=C(N[C@H](c1ccccc1)[C@@H]1CN2CCC1CC2)c1c(Cl)ccc(C(F)(F)F)c1Cl",
    "Class Name": "true"
  },
  {
    "Compound": "CCNS(=O)(=O)C(F)(F)C(F)(F)C(F)(F)C(F)(F)C(F)(F)C(F)(F)C(F)(F)C(F)(F)F",
    "Class Name": "false"
  },
  {
    "Compound": "Cc1ccc(N)c(N)c1",
    "Class Name": "false"
  },
  {
    "Compound": "[O-][Cl+]O",
    "Class Name": "false"
  },
  {
    "Compound": "CC(O)CCO (centres undefined)",
    "Class Name": "false"
  },
  {
    "Compound": "COC(=O)c1ccccc1N",
    "Class Name": "false"
  },
  {
    "Compound": "Oc1ccccc1Cl",
    "Class Name": "false"
  },
  {
    "Compound": "ClC1=C(Cl)C2(Cl)C3C(Cl)C=CC3C1(Cl)C2(Cl)Cl (centres undefined)",
    "Class Name": "false"
  },
  {
    "Compound": "[As]#[In]",
    "Class Name": "false"
  },
  {
    "Compound": "c1ccc(N=Nc2ccccc2)cc1",
    "Class Name": "false"
  },
  {
    "Compound": "OCCCl",
    "Class Name": "false"
  },
  {
    "Compound": "ClC1=C(Cl)[C@]2(Cl)[C@H]3[C@H]([C@@H]4C=C[C@H]3C4)[C@@]1(Cl)C2(Cl)Cl",
    "Class Name": "false"
  },
  {
    "Compound": "CCN(CC)CCO",
    "Class Name": "false"
  },
  {
    "Compound": "[Cl-].[Cl-].[Hg+2]",
    "Class Name": "false"
  },
  {
    "Compound": "C1=Cc2cccc3cccc1c23",
    "Class Name": "false"
  },
  {
    "Compound": "CNC(=O)Oc1cccc2c1OC(C)(C)C2",
    "Class Name": "false"
  },
  {
    "Compound": "C[N+](C)(C)CC1CO1 (centres undefined)",
    "Class Name": "false"
  },
  {
    "Compound": "CC(C)COC(=O)c1ccccc1C(=O)OCC(C)C",
    "Class Name": "false"
  },
  {
    "Compound": "CC(C)(OOC(C)(C)c1ccccc1)c1ccccc1",
    "Class Name": "false"
  },
  {
    "Compound": "OCCCBr",
    "Class Name": "false"
  },
  {
    "Compound": "COc1cc(C=O)cc2c1[C@H](COC(N)=O)[C@]1(OC(C)=O)ON2C[C@H]2[C@@H]1N2C(C)=O",
    "Class Name": "true"
  },
  {
    "Compound": "ClCCOCCCl",
    "Class Name": "false"
  },
  {
    "Compound": "c1ccc2c(c1)oc1ccccc12",
    "Class Name": "false"
  },
  {
    "Compound": "CCC(C)c1ccc(O)cc1 (centres undefined)",
    "Class Name": "false"
  },
  {
    "Compound": "N#CC(Br)Br",
    "Class Name": "false"
  },
  {
    "Compound": "CN(C)[C@@H]1C(=O)C(C(N)=O)=C(O)[C@@]2(O)C(=O)C3=C(O)c4c(O)cccc4[C@@](C)(O)[C@H]3C[C@@H]12",
    "Class Name": "false"
  },
  {
    "Compound": "Nc1ccc(Cc2ccc(N)cc2)cc1",
    "Class Name": "false"
  },
  {
    "Compound": "CCC12COCN1COC2",
    "Class Name": "false"
  },
  {
    "Compound": "CCCCCCCCn1sccc1=O",
    "Class Name": "false"
  },
  {
    "Compound": "OCCOCCO",
    "Class Name": "false"
  },
  {
    "Compound": "CCCCOC(=O)c1ccccc1C(=O)OCc1ccccc1",
    "Class Name": "false"
  },
  {
    "Compound": "O=C(Nc1ccccc1)c1ccccc1I",
    "Class Name": "false"
  },
  {
    "Compound": "Cc1cc(N=Nc2ccccc2C)ccc1N",
    "Class Name": "true"
  },
  {
    "Compound": "CCN(CC)N=O",
    "Class Name": "false"
  },
  {
    "Compound": "Cc1cccc(N)c1N",
    "Class Name": "false"
  },
  {
    "Compound": "Nc1ccc([N+](=O)[O-])cc1",
    "Class Name": "false"
  },
  {
    "Compound": "O=C1CCCO1",
    "Class Name": "false"
  },
  {
    "Compound": "Clc1ccccc1Cl",
    "Class Name": "false"
  },
  {
    "Compound": "Nc1ccc(N=Nc2ccccc2)cc1",
    "Class Name": "true"
  }
]
